- study_target: TRAF6/Uev1A/Ubc13 (Homo sapiens, UniProt Q9Y4K3)
- Sequence (Q9Y4K3 whole entry): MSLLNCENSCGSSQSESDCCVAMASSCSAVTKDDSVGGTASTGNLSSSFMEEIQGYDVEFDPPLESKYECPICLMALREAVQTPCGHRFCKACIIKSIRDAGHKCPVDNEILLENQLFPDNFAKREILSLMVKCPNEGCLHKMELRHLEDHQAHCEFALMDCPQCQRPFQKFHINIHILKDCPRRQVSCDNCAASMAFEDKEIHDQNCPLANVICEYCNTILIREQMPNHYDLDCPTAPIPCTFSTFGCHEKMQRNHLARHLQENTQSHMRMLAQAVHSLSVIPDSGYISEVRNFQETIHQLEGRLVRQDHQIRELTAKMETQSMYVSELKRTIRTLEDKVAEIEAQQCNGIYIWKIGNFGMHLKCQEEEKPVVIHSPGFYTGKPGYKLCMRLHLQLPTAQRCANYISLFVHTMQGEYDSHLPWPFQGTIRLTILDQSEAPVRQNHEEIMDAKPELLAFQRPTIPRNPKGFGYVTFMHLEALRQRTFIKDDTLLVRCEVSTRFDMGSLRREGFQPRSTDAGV
- run_description: TRAF6/Uev1A/Ubc13 plate-based ubiquitin ligase assay
pIC50: −log10 of the molar value.
So I've got a bunch of molecules here, and I need their pIC50 values.

INPUT: # return recorded pIC50 for entry O=[N+]([O-])c1ccc(Oc2c(Cl)cc(S(=O)(=O)Nc3cccc4nsnc34)cc2Cl)c(Cl)c1
OUTPUT: 4.70 to 6.00

INPUT: Please list pIC50 recorded for the molecule O=[N+]([O-])c1ccc(-c2ccc(C(F)(F)F)cc2)c2nonc12
OUTPUT: 4.70 to 6.00

INPUT: Quick one: give measured pIC50 for Nc1ccc(N2CCOCC2)c2nonc12
OUTPUT: ≤ 4.70

INPUT: Supply measured pIC50 of Cc1ccnc(N2CCN(c3ccc([N+](=O)[O-])c4nonc34)CC2)c1 in your reply.
OUTPUT: ≤ 4.70

INPUT: Write down pIC50 measured for item COc1cc(Nc2ccc(S(=O)(=O)Nc3cc(OC)c(Cl)cc3OC)c3nonc23)c(OC)cc1Cl [compound 342]
OUTPUT: 4.70 to 6.00

INPUT: For N#Cc1ccc(N2CCN(S(=O)(=O)c3c(Sc4cccc5cccnc45)ccc4nonc34)CC2)nc1 , write its pIC50.
OUTPUT: 4.70 to 6.00

INPUT: Please give the documented pIC50 of O=S(=O)(c1c(N2CCC(Oc3ccccc3C(F)(F)F)CC2)ccc2nonc12)N1CCC(Oc2ccccc2C(F)(F)F)CC1
OUTPUT: ≤ 4.70

INPUT: Entry O=S(=O)(Nc1ccc2cn[nH]c2c1)c1c(O)ccc2nonc12 needs its pIC50 filled in; supply it.
OUTPUT: ≤ 4.70
